The reader will find reported composite z-score values listed item by item below.
- TARGET_DESC: Epidermal growth factor receptor (Homo sapiens) (UniProt P00533)
- Sequence (P00533 whole entry, looked up): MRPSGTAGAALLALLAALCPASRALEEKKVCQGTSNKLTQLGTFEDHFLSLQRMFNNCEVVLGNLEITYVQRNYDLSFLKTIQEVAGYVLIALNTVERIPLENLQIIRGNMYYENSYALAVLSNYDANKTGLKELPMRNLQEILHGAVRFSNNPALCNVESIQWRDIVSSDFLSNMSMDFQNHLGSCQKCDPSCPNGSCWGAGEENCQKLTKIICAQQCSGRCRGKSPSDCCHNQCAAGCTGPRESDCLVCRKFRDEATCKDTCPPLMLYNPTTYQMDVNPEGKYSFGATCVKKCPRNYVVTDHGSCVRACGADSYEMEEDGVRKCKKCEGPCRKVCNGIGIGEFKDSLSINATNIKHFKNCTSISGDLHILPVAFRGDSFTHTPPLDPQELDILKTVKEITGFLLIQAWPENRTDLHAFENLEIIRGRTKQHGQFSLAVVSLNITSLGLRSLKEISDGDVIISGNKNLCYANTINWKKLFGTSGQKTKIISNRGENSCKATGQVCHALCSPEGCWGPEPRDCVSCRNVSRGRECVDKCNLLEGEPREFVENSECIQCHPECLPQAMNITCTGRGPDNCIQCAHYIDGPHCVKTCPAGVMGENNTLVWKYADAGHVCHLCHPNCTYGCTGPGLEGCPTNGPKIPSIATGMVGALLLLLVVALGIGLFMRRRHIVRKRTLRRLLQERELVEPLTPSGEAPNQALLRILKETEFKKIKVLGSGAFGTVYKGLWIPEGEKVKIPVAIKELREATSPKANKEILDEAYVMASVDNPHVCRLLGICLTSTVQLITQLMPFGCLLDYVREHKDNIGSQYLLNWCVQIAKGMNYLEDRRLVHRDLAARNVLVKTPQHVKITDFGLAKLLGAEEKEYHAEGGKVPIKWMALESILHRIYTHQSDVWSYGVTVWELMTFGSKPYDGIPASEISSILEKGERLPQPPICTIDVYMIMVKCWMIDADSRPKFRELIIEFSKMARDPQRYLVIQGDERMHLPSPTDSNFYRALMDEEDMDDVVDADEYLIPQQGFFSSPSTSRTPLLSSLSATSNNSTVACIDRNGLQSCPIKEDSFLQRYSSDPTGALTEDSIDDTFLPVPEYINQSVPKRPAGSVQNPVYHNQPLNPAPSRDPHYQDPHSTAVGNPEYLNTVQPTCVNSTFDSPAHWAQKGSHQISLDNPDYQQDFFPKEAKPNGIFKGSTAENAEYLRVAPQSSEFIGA
- ASSAY_EXPLANATION: EGFR binders on small-molecule microarrays, primary screen, biochemical, small-molecule microarray, 635 nm fluorescence (AID 1104);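 further: score merges 667 nm emission intensity with spot signal to noise over triplicate slides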
- CONDITION_SET: EGFR binding, higher = more signal

[[record]]
compound_structure = "COc1ccc([Si](C)(C)[C@H]2[C@H](CC(=O)N(CCO)Cc3ccccc3)O[C@@]3(C(=O)N(Cc4cccc(N5CCOC5=O)c4)c4ccccc43)[C@@H]2C)cc1"
target_desc = "Epidermal growth factor receptor (Homo sapiens) (UniProt P00533)"
measured_result = 0.232

[[record]]
compound_structure = "COCCOC(=O)N1C(=O)[C@@]2(c3cc(C#CC4=CCCCC4)ccc31)[C@H](C(N)=O)[C@H]1C(=O)O[C@H](c3ccccc3)[C@H](c3ccccc3)N1[C@@H]2c1ccccc1OCCO"
target_desc = "Epidermal growth factor receptor (Homo sapiens) (UniProt P00533)"
measured_result = 0.32


Please fill in: composite z-score reported for CC(C)(C)OC(=O)CC[C@@]1(C(=O)NCc2ccccc2)N=C(c2ccc(OCCCO)cc2)O[C@@H]1c1ccccc1N=[N+]=[N-] = 0.373

====

- TARGET_DESC: Follistatin (Homo sapiens) (UniProt P19883)
- Sequence (P19883 whole entry, looked up): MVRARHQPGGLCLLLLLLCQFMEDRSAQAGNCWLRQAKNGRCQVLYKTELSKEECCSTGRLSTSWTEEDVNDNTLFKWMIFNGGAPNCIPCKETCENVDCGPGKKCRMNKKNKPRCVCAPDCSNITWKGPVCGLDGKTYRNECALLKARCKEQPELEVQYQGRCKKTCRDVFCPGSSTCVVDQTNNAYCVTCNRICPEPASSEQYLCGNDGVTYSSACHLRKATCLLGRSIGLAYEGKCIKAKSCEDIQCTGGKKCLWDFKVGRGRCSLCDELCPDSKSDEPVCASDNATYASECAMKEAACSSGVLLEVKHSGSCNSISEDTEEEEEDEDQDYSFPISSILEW
- ASSAY_EXPLANATION: follistatin binders on small-molecule microarrays, primary screen, biochemical, small-molecule microarray, 635/667 nm fluorescence (AID 1132)
- CONDITION_SET: FST binding, 635 nm fluorescence, higher = more signal
composite z-score overview

Examples with their reported composite z-score follow.
[[record]]
compound = "CN(C)C(=O)C1N=C(c2ccc(OCCCO)cc2)N(c2ccccc2)O1 (configuration not stated)"
measured_result = 1.35

[[record]]
compound = "C=C[C@@H](COC(C)=O)N(C(=O)OC(C)(C)C)S(=O)(=O)c1ccc(Br)cc1"
measured_result = 1.53

[[record]]
compound = "CN1C(=O)C2C=CC(C(O)c3cccc4ccccc34)N(N3CCCCC3)C2C1=O (configuration not stated)"
measured_result = 1.23

[[record]]
compound = "O=C(CS)NCCCCCNC(=O)[C@@H]1C[C@@H]2C(=O)N3CCC[C@H]3C(=O)N2[C@@H]1c1cccc(OCCO)c1"
measured_result = 1.28

[[record]]
compound = "CCOC(=O)c1ccc(NC(=O)O[C@H]2[C@H](OC(=O)Nc3ccc4c(c3)OCO4)[C@H](OC(=O)Nc3ccc4c(c3)OCO4)[C@@H](OC)O[C@@H]2CO)cc1"
measured_result = 1.38

[[record]]
compound = "NC(=O)NCC#Cc1ccc2c(c1)[C@]1(C(=O)N2)[C@H](C(=O)NC[C@H](O)c2ccccc2)[C@H]2C(=O)O[C@H](c3ccccc3)[C@H](c3ccccc3)N2[C@@H]1c1ccc(OCCO)cc1"
measured_result = 1.29


Then this compound:
Field composite z-score (Follistatin (Homo sapiens) (UniProt P19883)), entry COC(=O)[C@@]1(Cc2ccc(OC)cc2)[C@H]2c3cc(C(=O)N4CCCC4)n(Cc4c(-c5ccccc5)noc4C)c3C[C@H]2CN1C(=O)c1ccccc1 : 0.699

====

- Test system: Sam68 (KHDRBS1)
- ASSAY_EXPLANATION: Sam68 small-molecule binders, primary screen, biochemical, small-molecule microarray, 635 nm fluorescence (AID 1125);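 further: score merges 667 nm channel intensity with signal to noise over triplicate slides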
- CONDITION_SET: small-molecule microarray binding, higher = more signal
Tag: Condition met if measured composite z-score is not below 0.8, Condition not met if it is.

Some entries whose results are on file:
[[record]]
molecule = "O=C1OCC=C[C@H]2OC34C=CCN(Cc5ccccc5)C(=O)[C@H]3N(CCCCCCO)C(=O)[C@@H]4[C@@H]12 (some centres not stated)"
group = "Condition not met"

[[record]]
molecule = "C=CCN1C(=O)[C@@]2(CCS(=O)(=O)c3ccccc3)N=C(c3ccc(OCCCO)cc3)O[C@H]2c2ccccc21"
group = "Condition met"

[[record]]
molecule = "[N-]=[N+]=NCc1ccccc1[C@H]1OC(c2ccc(OCCCO)cc2)=N[C@@]1(CCS(=O)(=O)c1ccccc1)C(=O)N1CCCCC1"
group = "Condition met"

[[record]]
molecule = "O=C1C2C=CC(C(O)c3ccccc3)N(Nc3ccccc3F)C2C(=O)N1c1ccccc1 (configuration not stated)"
group = "Condition not met"

[[record]]
molecule = "CN1C(=O)C2C=CC(C(O)c3ccccn3)N(N(c3ccccc3)c3ccccc3)C2C1=O (configuration not stated)"
group = "Condition not met"


Given the entry CCOC(=O)c1ccc(NC(=O)O[C@H]2[C@H](OC(=O)Nc3ccc4c(c3)OCO4)[C@H](OC(=O)Nc3ccc4c(c3)OCO4)[C@@H](OC)O[C@@H]2CO)cc1 , answer whether its composite z-score meets or surpasses 0.8.
Condition met

Has O=C(NCC(F)(F)F)[C@@H]1c2ccccc2C(=O)N(Cc2ccc(OC(F)(F)F)cc2)[C@H]1c1ccc(CO)cc1 a recorded composite z-score greater than or equal to 0.8?
Condition not met

====

- ASSAY_EXPLANATION: E. coli growth modulation, two-sided OD650, primary screen, E. coli filamentation project, strain DRC41, 24 h (AID 1093);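 further: MC1000 strain lacking acrAB efflux and sulA so SOS filamentation is blocked; test concentration not given here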
- CONDITION_SET: OD650, 24 h, higher = more signal, called active from +8 up or from −8 down
MEASUREMENT_KIND: z-score
Number, no unit, nothing else.

Known results for compounds:
[[record]]
compound = "O=C(N1CCCCC1)[C@@]1(CCS(=O)(=O)c2ccccc2)COC(c2ccc(OCCCO)cc2)=N1"
measurement_kind = "z-score"
measured_result = 1.23

[[record]]
compound = "Cc1ccc(S[C@]2(C(=O)NCC(F)(F)F)CC(=O)N(Cc3ccccc3C(F)(F)F)[C@@H]2c2ccc(CO)cc2I)cc1"
measurement_kind = "z-score"
measured_result = 0.625

[[record]]
compound = "COC(=O)[C@H](Cc1ccccc1)N1CC(/C=C/C2CC2)=C[C@H]1[C@H](O)Cc1ccccc1"
measurement_kind = "z-score"
measured_result = -0.25

[[record]]
compound = "O=C(NCc1ccccc1)[C@@H]1c2ccccc2C(=O)N(Cc2ccccc2C(F)(F)F)[C@H]1c1ccc(CO)cc1"
measurement_kind = "z-score"
measured_result = 0.479

[[record]]
compound = "O=C1O[C@H](c2ccccc2)[C@H](c2ccccc2)N2[C@H]1[C@@H](C(=O)NC[C@H](O)c1ccccc1)[C@]1(C(=O)Nc3ccc(C#CCCO)cc31)[C@H]2c1ccc(OCCO)cc1"
measurement_kind = "z-score"
measured_result = 0.301


Please examine the following record next.
Record O=C1C2C=CC(C(O)c3ccc(Br)cc3)N(Nc3ccccc3F)C2C(=O)N1c1ccccc1 (configuration not stated) . Reported z-score: 0.569

====

// reported z-score for each item listed
- ASSAY_EXPLANATION: adipocyte viability effects, profiling panel, cell-based, 3T3-L1 adipocytes, calcein-AM fluorescence, 48 h, basal (AID 1163); further: test concentration not given here
- CONDITION_SET: 3T3-L1 adipocytes viability, higher = more signal
Lab note: write the figure by itself, no unit.

[[record]]
molecule = "COCCOC(=O)N1C(=O)[C@@]2(c3cc(C#CCC(C(=O)OC)C(=O)OC)ccc31)[C@H](C(=O)N1CCc3cc(OC)c(OC)cc3C1)[C@H]1C(=O)O[C@H](c3ccccc3)[C@H](c3ccccc3)N1[C@@H]2c1ccc(OCCO)cc1"
measurement_kind = "z-score"
measured_result = 0.105

[[record]]
molecule = "CCCCC=C[C@@H](NC(=O)c1ccc(-c2ccccc2)cc1)c1ccccc1"
measurement_kind = "z-score"
measured_result = -0.768

[[record]]
molecule = "CC(CO)N1C(=O)[C@@H]2[C@H]3C(=O)OCC=C[C@H]3OC23C=CCN(C(C)(C)C)C(=O)[C@@H]13 (some centres undefined)"
measurement_kind = "z-score"
measured_result = -0.643

[[record]]
molecule = "CC1=C([C@H](O)CCc2ccccc2)[C@H](CO)[C@@H]2C(=O)N(C)C(=O)[C@@H]2C1"
measurement_kind = "z-score"
measured_result = -0.371

[[record]]
molecule = "CN(C)CCCNC(=O)[C@@]1(C)c2ccccc2C(=O)N(Cc2ccccc2)[C@H]1c1ccc(CO)cc1"
measurement_kind = "z-score"
measured_result = 0.451


For record COC(=O)[C@@]1(Cc2ccccc2)[C@H]2c3cc(C(=O)N(C)C)n(CCc4ccc(O)c(OC)c4)c3C[C@H]2CN1C(=O)c1ccccc1 the listed z-score is -0.121

Briefly, z-score measured for C=CC[C@@]1(C(=O)N2CCOCC2)N=C(c2ccc(OCCCO)cc2)O[C@@H]1c1ccccc1CN=[N+]=[N-] : 0.563

Value of measured z-score for the entry C=CCOC(=O)[C@H]1[C@@H]2C(=O)O[C@@H](c3ccccc3)[C@@H](c3ccccc3)N2[C@@H](c2ccc(OCCOC(=O)[C@@H]3C[C@@H]4C(=O)N[C@@H](CCCCN(C)C)C(=O)N4[C@@H]3c3ccc(O)cc3)cc2)[C@]12C(=O)Nc1ccccc12 : 0.887

O=C1O[C@@H](c2ccccc2)[C@@H](c2ccccc2)N2[C@@H](c3ccc(O)cc3)[C@]3(C(=O)Nc4ccc(C#CC5(O)CCCCCC5)cc43)[C@@H](C(=O)NC[C@H](O)c3ccccc3)[C@H]12 has a reported z-score of 0.264

Reported z-score for CC(CO)N1C(=O)[C@@H]2[C@H]3C(=O)OCC=C[C@H]3OC23C=CCN(Cc2ccccc2)C(=O)[C@@H]13 (some centres undefined) was 0.847

The recorded z-score for O=C1O[C@@H](c2ccccc2)[C@@H](c2ccccc2)N2[C@@H](c3ccc(OCCO)cc3)[C@]3(C(=O)Nc4ccccc43)[C@@H](C(=O)O)[C@H]12 is 0.624

Value of z-score reported for the molecule CCCCN1CC=CC23O[C@@H]4/C=C\CCC(C)OC(=O)C4[C@H]2C(=O)N(C(CO)C(C)C)[C@@H]3C1=O (some centres undefined) is -0.21

# z-score of Cc1cc(C)cc(N2C(=O)CSC2c2cccc([N+](=O)[O-])c2)c1 (centres undefined) = -0.28

Lab note: measured z-score of COCCOC(=O)N1C(=O)[C@@]2(c3cc(C#CC4=CCCCC4)ccc31)[C@H](C(=O)N1CCCCCCC1)[C@H]1C(=O)O[C@H](c3ccccc3)[C@H](c3ccccc3)N1[C@@H]2c1ccc(O)cc1 was 0.936
